System: MCF-7 (human breast cancer cells)
assay overview: MTT inhibition of tumor cell growth, MCF-7
Type: cell-based
condition parameters: Table 4, derivatives obtained by reduction of the lactonic ring, 48 h
Experimental: 1. Inoculating cells: the culture medium DMEM or RMPI1640 containing 10% fetal bovine serum was used to prepare a single cell suspension, and the cell suspension was inoculated to a 96-well plate at 5000-10000 cells per well (100 μl for each well); Adherent cells were inoculated and cultured for 12 h in advance. […] 4. Colorimetric assay: ELISA Reader (Bio-Rad 680) was used to obtain the light absorption for each well at a wavelength of 595 nm, the results were recorded. […]
observation type: IC50 (µM)

{"compound": "[NH2][Pt]([NH2])([Cl])[Cl] [cis-DDP, reference compound]", "unit of measure": "µM", "recorded number": 15.9}

---

Reported pIC50 values for the following compounds.
System: SMMC-7721 (human hepatoma cells)
assay overview: MTT inhibition of tumor cell growth, SMMC-7721
Format: cell-based
condition parameters: Homo sapiens, SMMC-7721, 48 h, Table 3, single Michael reaction acceptor, modified lactonic ring
pIC50: −log10 of the molar value.
observation type: pIC50

{"compound": "C=C1C(=O)C23CC[C@H]1CC2[C@@]12CCC[C@@](C)(COS(=O)OC1)C2C[C@H]3O (stereo partly shown) [Compound 41]", "observation type": "pIC50", "operator": "=", "recorded number": 6.05}
{"compound": "C=C1C(=O)C23CC[C@H]1CC2[C@@]12CCC[C@@](C)(C(=O)OC1=O)C2CC3=O (stereo partly shown) [Compound 39]", "observation type": "pIC50", "operator": "=", "recorded number": 4.46}
{"compound": "C=C1C(=O)C23CC[C@H]1CC2[C@]1(C(=O)O)CCC[C@@](C)(CO)C1C[C@H]3O (stereo partly shown) [Compound 38]", "observation type": "pIC50", "operator": "<", "recorded number": 4.40}
{"compound": "C=C1C(=O)[C@]23CC[C@H]1CC2[C@@]12CCC[C@@](C)(COC1)C2C[C@H]3O (stereo partly shown) [Compound 25]", "observation type": "pIC50", "operator": "=", "recorded number": 5.31}
{"compound": "C=C1C(=O)[C@]23CC[C@H]1CC2[C@@]12CCC[C@@](C)(CO[C@H]1OC)C2CC3=O (stereo partly shown) [Compound 22]", "observation type": "pIC50", "operator": "=", "recorded number": 6.29}
{"compound": "C=C1C(=O)[C@]23CC[C@H]1CC2[C@@]12CCC[C@@](C)(COC1)C2CC3=O (stereo partly shown) [Compound 28]", "observation type": "pIC50", "operator": "=", "recorded number": 5.34}
{"compound": "CC(=O)O[C@H]1C(=O)[C@@]2(C)[C@H]([C@H](OC(=O)c3ccccc3)[C@]3(O)C[C@H](OC(=O)[C@H](O)[C@@H](NC(=O)c4ccccc4)c4ccccc4)C(C)=C1C3(C)C)[C@]1(OC(C)=O)CO[C@@H]1C[C@@H]2O [TAXOL, reference compound]", "observation type": "pIC50", "operator": ">", "recorded number": 8.10}
{"compound": "C=C1C(=O)[C@]23CC[C@H]1CC2[C@@]12CCC[C@@](C)(CO[C@H]1OC)C2C[C@H]3O (stereo partly shown) [Compound 21]", "observation type": "pIC50", "operator": "=", "recorded number": 5.73}
{"compound": "C=C1C(=O)C23CC[C@H]1CC2[C@@]12CCC[C@@]4(C)CO[C@@H]1O[C@@H]3CC42 (stereo partly shown) [Compound 36]", "observation type": "pIC50", "operator": "=", "recorded number": 4.96}
{"compound": "C=C1C(=O)[C@]23CC[C@H]1CC2[C@@]12CCC[C@@](C)(COC1=O)C2C[C@H]3O (stereo partly shown) [Compound 1, 15-oxospiramilactone]", "observation type": "pIC50", "operator": "=", "recorded number": 5.40}
